assay: Microsomal stability, human; type: in vitro ADME
Overview of reported Microsomal Stability: % remaining after 60 minutes across a group of compounds:
Only the number, expressed in %, is required.

Here is how some compounds turned out for Microsomal Stability: % remaining after 60 minutes.
{"columns": ["compound", "display unit", "test value"],
 "data": [
  ["O=C(NC(c1ccc(F)cc1)c1ccccn1)C1CCN(CCOc2ccccc2Cl)CC1 (centres unmarked)", "%", 42],
  ["O=C(NC(c1ccc(Cl)cc1)c1ccccn1)C1CCN(CCOc2ccc3ccc(=O)[nH]c3c2)CC1 (centres unmarked)", "%", 56],
  ["O=C(NC(c1ccccn1)C1CCCCC1)C1CCN(CCOc2ccccc2)CC1 (centres unmarked)", "%", 71],
  ["O=C(NC(c1ccccc1)c1ccc(F)cc1)C1CCN(CCOc2ccccc2)CC1 (centres unmarked)", "%", 56],
  ["O=C(NC(c1ccc(Cl)cc1)c1ccccn1)C1CCN(CCOc2cccc(C(F)(F)F)c2)CC1 (centres unmarked)", "%", 87]
]}

Request: Which Microsomal Stability: % remaining after 60 minutes is reported for this compound? O=C(NC(c1ccc(Cl)cc1)c1ccccn1)C1CCN(CCOc2cccnc2)CC1 (centres unmarked)
Response: 75

Request: Quick one: Microsomal Stability: % remaining after 60 minutes of O=C(NC(c1cccc(Cl)c1)c1ccccn1)C1CCN(CCOc2ccccc2)CC1 (centres unmarked) ?
Response: 76

Request: Name the reported Microsomal Stability: % remaining after 60 minutes value associated with the compound O=C(NC(c1ccc(Cl)cc1)c1ccccn1)C1CCN(CCCc2ccccc2)CC1 (centres unmarked)
Response: 78

* * *

Attribute: pIC50
biological target: human D2R/β-arrestin (Homo sapiens (Human)); experiment: cell-based; conditions: β-arrestin Antagonist, CHO-K1 cell line expressing human D2R/β-arrestin; quinpirole used as agonist
pIC50: −log10 of the molar value.

// solved cases for pIC50 follow
{"columns": ["compound", "tested target", "pIC50"],
 "data": [
  ["O=C(NC(c1ccccn1)c1ccccc1Cl)C1CCN(CCOc2ccccc2)CC1 (stereo not shown)", "human D2R/β-arrestin (Homo sapiens (Human))", "5.00 to 6.00"],
  ["Fc1ccc(C(NCC2CCN(CCOc3ccccc3)CC2)c2ccccn2)cc1 (stereo not shown) [Compound 78]", "human D2R/β-arrestin (Homo sapiens (Human))", "5.00 to 6.00"],
  ["CC(C1CCN(CCOc2ccccc2)CC1)N(C)C(c1ccc(Cl)cc1)c1ccccn1 (stereo not shown) [Compound 97]", "human D2R/β-arrestin (Homo sapiens (Human))", "> 7.00"]
]}

Request: Need pIC50 of O=C(NC1CCN(CCOc2ccccc2)CC1)C(c1ccc(Cl)cc1)c1ccccn1 (stereo not shown) , thanks.
Response: 5.00 to 6.00

* * *

system: plasma protein; experiment: Plasma protein binding, mouse; format: in vitro ADME; details: plasma, read-out: Plasma Protein Binding % bound
metric: fraction unbound
Returns: the value as a bare number; no unit string appended.

Request: I have this molecule here, O=C(NC(c1ccc(Cl)cc1)c1ccccn1)C1CCN(CCOc2ccccc2C(F)(F)F)CC1 (centres unmarked) , and I need its recorded fraction unbound.
Response: 0.008

* * *

test: Plasma stability, rat; assay type: in vitro ADME
Each record here notes measured Plasma Stability: % remaining after 5 hours.
Dear colleague, please return just the value in %, with no unit written.

{"columns": ["molecule", "display unit", "test value"],
 "data": [
  ["O=C(NC(c1ccccc1)c1ccc(Cl)cc1)C1CCN(CCOc2ccccc2)CC1 (stereo not drawn)", "%", 86],
  ["O=C(NC(c1ccc(Cl)cc1)c1ccccn1)C1CCN(CCOc2ccc3cccnc3c2)CC1 (stereo not drawn)", "%", 97],
  ["O=C(NC(c1ccc(Cl)cc1)c1ccccn1)C1CCN(CCOc2ccccc2Cl)CC1 (stereo not drawn)", "%", 88.1]
]}

Request: Item O=C(NC(c1ccc(Cl)cc1)c1ccccn1)C1CCN(CCOc2ccccc2C(F)(F)F)CC1 (stereo not drawn) has what recorded Plasma Stability: % remaining after 5 hours?
Response: 69.3

Request: Fill blank: measured Plasma Stability: % remaining after 5 hours of the molecule O=C(NC(c1cccc(Cl)c1)c1ccccn1)C1CCN(CCOc2ccccc2)CC1 (stereo not drawn) is ____.
Response: 96

Request: Return reported Plasma Stability: % remaining after 5 hours; argument: O=C(NC(c1ccc(C(F)(F)F)cc1)c1ccccn1)C1CCN(CCOc2ccccc2)CC1 (stereo not drawn)
Response: 100

* * *

experiment: Microsomal stability, mouse
metric: Microsomal Stability: % remaining after 60 minutes

Some solved cases for reference:
{"columns": ["compound", "test value"],
 "data": [
  ["O=C(NC(c1ccc2c(c1)OC(F)(F)O2)c1ccccn1)C1CCN(CCOc2ccccc2F)CC1 (single isomer, unassigned) [Compound 94b]", "m26%"],
  ["O=C(NC(c1cccc(Cl)c1)c1ccccn1)C1CCN(CCOc2ccccc2)CC1 (stereo not shown)", "41%"],
  ["O=C(NC(c1ccc2c(c1)OCO2)c1ccccn1)C1CCN(CCOc2ccccc2F)CC1 (stereo not shown) [Compound 95]", "m33%"],
  ["O=C(NC(c1cccc(OC(F)(F)F)c1)c1ccccn1)C1CCN(CCOc2ccccc2F)CC1 (single isomer, unassigned) [Compound 93b]", "m19%"],
  ["O=C(NC(c1ccc(Cl)cc1)c1ccccn1)C1CCN(CCn2ccc(=O)cc2)CC1 (stereo not shown)", "100%"]
]}

Request: What value of Microsomal Stability: % remaining after 60 minutes has been recorded for this entry: O=C(NC(c1ccc(Cl)cc1)c1ccccn1)C1CCN(CCCc2ccccc2)CC1 (stereo not shown)
Response: 43%

Request: Request the reported Microsomal Stability: % remaining after 60 minutes associated with CC(C)N(CC1CCN(CCOc2ccccc2)CC1)C(c1ccc(Cl)cc1)c1ccccn1 (stereo not shown)
Response: m1%

* * *

Some compounds, each annotated with its measured Microsomal Stability: % remaining after 60 minutes.
experiment: Microsomal stability, rat; format: in vitro ADME
Just the number in %, nothing appended.

As a guide, the following entries are already answered.
{"columns": ["compound", "test value"],
 "data": [
  ["COc1cccc(C(NC(=O)C2CCN(CCOc3ccccc3)CC2)c2ccccc2)c1 (centres unmarked)", 27],
  ["O=C(NC(c1ccc(Cl)cc1)c1ccccc1F)C1CCN(CCOc2ccccc2)CC1 (centres unmarked)", 57],
  ["O=C(NC(c1ccc(F)cc1)c1ccc(Cl)cc1)C1CCN(CCOc2ccccc2)CC1 (centres unmarked)", 70],
  ["O=C(NC(c1cccc(Cl)c1)c1ccccn1)C1CCN(CCOc2ccccc2)CC1 (centres unmarked)", 77],
  ["O=C(NC(c1ccc(Cl)cc1)c1ccccn1)C1CCN(CCOc2cccnc2)CC1 (centres unmarked)", 57],
  ["O=C(NC(c1ccncc1)c1ccc(Cl)cc1)C1CCN(CCOc2ccccc2)CC1 (centres unmarked)", 53],
  ["O=C(NC(c1ccccc1)c1ccc(F)cc1)C1CCN(CCOc2ccccc2)CC1 (centres unmarked)", 59],
  ["O=C(NC(c1ccc(Cl)cc1)c1ccccn1)C1CCN(CCCc2ccccc2)CC1 (centres unmarked)", 55]
]}

Request: # Microsomal Stability: % remaining after 60 minutes lookup, item O=C(NC(c1ccc(Cl)cc1)c1ccccn1)C1CCN(CCOc2cc(F)ccc2F)CC1 (centres unmarked)
Response: 44

Request: Tell me the measured Microsomal Stability: % remaining after 60 minutes of O=C(NC(c1ccc(C(F)(F)F)cc1)c1ccccn1)C1CCN(CCOc2ccccc2)CC1 (centres unmarked) , please.
Response: 55

Request: Can you look up the measured Microsomal Stability: % remaining after 60 minutes of O=C(NC(c1ccc(F)cc1)c1ccccn1)C1CCN(CCOc2ccccc2)CC1 (centres unmarked) for me?
Response: 100

Request: # get_value(readout='Microsomal Stability: % remaining after 60 minutes', item= O=C(NC(c1ccc(F)cc1)c1ccccn1)C1CCN(CCOc2ccccc2C(F)(F)F)CC1 (centres unmarked) )
Response: 7

Request: Using the record for O=C(NC(c1ccc(Cl)cc1)c1ccccn1)C1CCN(CCOc2ccc(F)cc2)CC1 (centres unmarked) , report its Microsomal Stability: % remaining after 60 minutes.
Response: 84

Request: Sample O=C(NC(c1ccc(Cl)cc1)c1cccc(F)c1)C1CCN(CCOc2ccccc2)CC1 (centres unmarked) — what was its Microsomal Stability: % remaining after 60 minutes?
Response: 78

Request: What Microsomal Stability: % remaining after 60 minutes value was documented for this compound, O=C(NC(c1ccc(Cl)cc1)c1ccccn1)C1CCN(CCOc2ccccc2Cl)CC1 (centres unmarked) ?
Response: 35

Request: Report Microsomal Stability: % remaining after 60 minutes for COc1cccc(C(NC(=O)C2CCN(CCOc3ccccc3)CC2)c2ccccn2)c1 (centres unmarked) please.
Response: 80

Request: Consider the compound shown here: Clc1ccc(C(NCC2CCN(CCOc3ccccc3)CC2)c2ccccn2)cc1 (centres unmarked) What is its recorded Microsomal Stability: % remaining after 60 minutes?
Response: 20

* * *

Reported IC50 values for the following compounds.
molecular target: human D2R/β-arrestin (Homo sapiens (Human), UniProt P14416); test: cell-based; conditions: cAMP Antagonist, CHO-K1 cell line expressing human D2R/β-arrestin; quinpirole used as agonist
Sequence (P14416 whole entry): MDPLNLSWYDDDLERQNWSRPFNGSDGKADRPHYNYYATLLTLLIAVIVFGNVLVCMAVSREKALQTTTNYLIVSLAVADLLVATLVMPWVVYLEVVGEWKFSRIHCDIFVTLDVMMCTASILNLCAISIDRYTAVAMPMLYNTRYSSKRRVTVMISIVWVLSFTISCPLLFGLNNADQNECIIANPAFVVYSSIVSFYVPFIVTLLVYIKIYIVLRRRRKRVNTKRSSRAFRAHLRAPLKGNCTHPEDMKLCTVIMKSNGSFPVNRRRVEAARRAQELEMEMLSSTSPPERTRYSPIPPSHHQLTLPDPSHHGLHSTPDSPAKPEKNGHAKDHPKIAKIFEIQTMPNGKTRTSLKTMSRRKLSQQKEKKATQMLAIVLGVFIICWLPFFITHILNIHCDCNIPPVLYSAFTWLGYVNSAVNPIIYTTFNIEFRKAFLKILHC

Reference set, count: 5
{"columns": ["compound", "IC50"],
 "data": [
  ["Fc1ccccc1OCCN1CCC(CNC(c2ccc3c(c2)OCO3)c2ccccn2)CC1 (single isomer, unassigned) [Compound 139a]", "100 to 1000 nM"],
  ["CC(=O)N(CC1CCN(CCOc2ccccc2)CC1)C(c1ccc(Cl)cc1)c1ccccn1 (centres unmarked)", "> 30000 nM"],
  ["O=C(NC(c1ccc(Cl)cc1)c1ccccn1)C1CCN(CCOc2ccccc2F)CC1 (centres unmarked)", "> 30000 nM"],
  ["O=C(NC(c1ccc(F)cc1)c1ccc(F)cc1)C1CCN(CCOc2ccccc2)CC1", "100 to 1000 nM"],
  ["O=C(NC(c1ccccn1)c1ccccc1C(F)(F)F)C1CCN(CCOc2ccccc2)CC1 (centres unmarked)", "> 30000 nM"]
]}

Request: Consider the compound shown here: O=C(NC(c1cccc(F)c1)c1ccccn1)C1CCN(CCOc2ccccc2)CC1 (centres unmarked) What is its recorded IC50?
Response: 100 to 1000 nM

Request: Name the reported IC50 value associated with the compound FC(F)(F)CN(CC1CCN(CCOc2ccccc2)CC1)C(c1ccc(Cl)cc1)c1ccccn1 (single isomer, unassigned) [Compound 125a]
Response: > 30000 nM

Request: Query (compound): Fc1ccccc1OCCN1CCC(CNC(c2ccc(Cl)cc2)c2ccccc2F)CC1 (centres unmarked) ; field requested: IC50
Response: 100 to 1000 nM
